Exercise: state measured MIC for each of the molecules provided.
- Test system: Proteus vulgaris
- protocol_text: Antibacterial (Proteus vulgaris CN329) activity compared to trimethoprim.
- Assay type: functional

C/C=C/c1cc(Cc2cnc(N)nc2N)cc(/C=C/C)c1OC ... > 50 µg/mL
C/C=C/c1cc(Cc2cnc(N)nc2N)cc(CCC)c1OC ... > 100 µg/mL
C=CCOc1ccc(Cc2cnc(N)nc2N)cc1 ... > 100 µg/mL
C=CCOc1ccc(Cc2cnc(N)nc2N)cc1CC=C ... > 50 µg/mL

Briefly, MIC measured for C=CCc1cc(Cc2cnc(N)nc2N)cc(CCC)c1OC : > 50 µg/mL
